Numbers sourced from ChEMBL document CHEMBL1201862.

# Test system: ACHN
# test-details: NCI tumour cell line growth inhibition, 48 h
Active and inactive are the calls of the source. No stated cut-off is given here; in the data, active = GI50 up to about 1.1 µM and inactive = higher.
property: GI50

# count of solved cases: 5
NC(CCCCNC(=O)CNC(=O)OCc1ccccc1)C(=O)NC(CCCCNC(=O)CNC(=O)OCc1ccccc1)C(=O)NC(CCCCNC(=O)CNC(=O)OCc1ccccc1)C(=O)NC(CCCCNC(=O)CNC(=O)OCc1ccccc1)C(=O)NC(CCCCNC(=O)CNC(=O)OCc1ccccc1)C(=O)NC(CCCCNC(=O)CNC(=O)OCc1ccccc1)C(=O)O (configuration not stated)    > 75 µM (inactive)
Cc1ccc(C(=O)OC[C@H]2CC[C@@H](n3cc(N(C)C4CCCCC4)c(=O)[nH]c3=O)O2)cc1    26.6 µM (inactive)
CN(C)c1n/c(=N/c2ccc(/N=c3\nc(N(C)C)ss3)cc2)ss1    36.9 µM (inactive)
CCOP(=O)(OCC)C1CC(O)C(=O)N1 (configuration not stated)    > 100 µM (inactive)
COC(=O)C(=O)C(C(=O)C(=O)Nc1ccccc1[N+](=O)[O-])c1nc2ccc([N+](=O)[O-])cc2nc1O (configuration not stated)    > 100 µM (inactive)

Log: ACHN, compound C=CCc1cc(-c2cc(CC=C)c(O)c(CN(CCCl)CCCl)c2)cc(CN(CCCl)CCCl)c1O , GI50 = 7.69 µM (inactive)

Log: ACHN, compound CCCCCCCCCCCCCCCC(=O)NC1CCc2cc(O)c(O)c(O)c2-c2ccc(SC)c(=O)cc21 (configuration not stated) , GI50 = 8.04 µM (inactive)
